# Test system: HGGX6 (H3.3 G34R paediatric high-grade glioma line)
# PROCEDURE SUMMARY: area under dose-response curve of % growth inhibition (log2 RLU vs DMSO / staurosporine), 1e-11 to 1e-4 M (% x log10 M); higher = more growth inhibition
Collected area under dose-response curve values appear next to each entry.
REPORTED ENDPOINT: area under dose-response curve

[[record]]
compound = "O=C1[C@H](Cc2ccc(O)cc2)N2C(=O)CCN(C(=O)NCc3ccccc3)[C@H]2CN1Cc1cccc2ccccc12"
measured_result = 41.9

[[record]]
compound = "COc1cc(C#N)ccc1S(=O)(=O)Nc1ccc2c(c1)cc(C)c(=O)n2C"
measured_result = 15.9

[[record]]
compound = "CO[C@H]1C(=O)[C@]2(C)[C@@H](OC)C[C@H]3OC[C@@]3(OC(C)=O)[C@H]2[C@H](OC(=O)c2ccccc2)[C@]2(O)C[C@H](OC(=O)[C@H](O)[C@@H](NC(=O)OC(C)(C)C)c3ccccc3)C(C)=C1C2(C)C"
measured_result = 78.2

[[record]]
compound = "CC(C)NC[C@@H](C(=O)N1CCN(c2ncnc3c2[C@H](C)C[C@H]3O)CC1)c1ccc(Cl)cc1"
measured_result = 49

[[record]]
compound = "CCCC1O[C@@H]2C[C@H]3[C@@H]4CCC5=CC(=O)C=C[C@]5(C)[C@H]4[C@@H](O)C[C@]3(C)[C@]2(C(=O)CO)O1 (stereo partly specified) [BUDESONIDE]"
measured_result = 6.8

[[record]]
compound = "CCOC(=O)c1ccnc(CNCC(=O)N(CC)CCN(C)C)c1"
measured_result = 2.7

